The entries below come with measured optical density values attached.
subject of test: T1, biotinylated goat anti-human kappa light chain
T1 construct: positive control of the ELISA
assay summary: ELISA, positive control; further: test concentration or dose not given here
// units = OD; emit number, no label

375_A04 (antibody, V domains shown, Group I) VH: EVQLLESGGGLVQPGGSLRLSCAASGFTFDSYGMNWVRQAPGKGLEWVAGINYNGGYKSYADSVKGRFTISRDNSKNTLYLQMNSLRAEDTAVYYCARAANWHDTALDYWGQGTLVTVSS VL: DIQMTQSPSSLSASVGDRVTITCRASQSILTYLNWYQQKPGKAPKLVIYYVNNLPSGVPSRFSGSGSGTDFTLTISSLQPEDFATYYCQQSYNSPLTFGGGTKVEIK = 3.1

Here is another binder to look at.
Record 371_D07 (antibody, V domains shown, Group I) VH: EVQLLESGGGLVQPGGSLRLSCAASGFTFDDYGMNWVRQAPGKGLEWVANINYNGGYKGYADSVKGRFTISRDNSKNTLYLQMNSLRAEDTAVYYCARAANWHDTHLDYWGQGTLVTVSS VL: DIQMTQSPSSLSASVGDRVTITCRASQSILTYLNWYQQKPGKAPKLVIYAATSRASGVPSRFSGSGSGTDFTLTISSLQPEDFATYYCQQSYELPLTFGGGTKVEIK , field optical density: 3.59
